Biological target: T1, ^CDD_(MlnD) labeled with eGFPd
T1 chain: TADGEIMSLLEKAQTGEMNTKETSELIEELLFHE
Experiment: FRET or BRET; in vitro FRET with purified fusion proteins in PBS, plate reader, 37 °C; donor protein fixed at 1 × 10^-6 M, acceptor protein 0 to 20 × 10^-6 M
Conditions: both partners purified
Ends that are not written are not given here.
assay-endpoint: Kd (nM)
One number for each entry, in nM.

Data point: MNEKTMQIEQIVKKVKECSLTPEEGLELIKSLGKT (domain or fragment, also: labeled with mRFP) [^NDD_(MlnE) labeled with mRFP] ; Kd = 1500
